Reported GI50 by item:
Test system: RXF 393 renal
TEST DETAILS: NCI tumour cell line growth inhibition, 48 h

- MOLECULE: "O=C1c2c(c3c4ccccc4[nH]c3c3ccc4ccccc4c23)C(=O)N1CCN1CCCCC1"
  GI50: "1470 nM"
- MOLECULE: "C[C@@H]1CC[C@H]2C(COCCOCC3=C(C(F)(F)F)O[C@@H]4O[C@@]5(C)CC[C@H]6[C@H](C)CC[C@@H]3[C@@]46OO5)=C(C(F)(F)F)O[C@@H]3O[C@@]4(C)CC[C@@H]1[C@]32OO4"
  GI50: "> 100000 nM"
- MOLECULE: "CN(C)c1ccc2c(c1)Sc1cc(N(C)C)ccc1N2C(=O)c1ccccc1"
  GI50: "28700 nM"
- MOLECULE: "COc1ccc(-c2cc(-c3ccccc3)nc(SCCCC(=O)NO)n2)cc1"
  GI50: "338 nM"

---

System: OVCAR-3 ovarian
TEST DETAILS: NCI tumour cell line growth inhibition, 48 h

- COMPOUND: "COc1ccc(NC(=O)CC(=O)N2N=C(C)C(N=Nc3ccc(S(=O)(=O)c4ccc(N=NC5C(=O)N(C(=O)CC(=O)Nc6ccc(OC)cc6)N=C5C)cc4)cc3)C2=O)cc1 (centres undefined)"
  TGI: "> 100 µM"
- COMPOUND: "CCOC(=O)C1=C(O)C(=O)c2ccsc2C1=O"
  TGI: "> 100 µM"
- COMPOUND: "COc1nc2c(c(=O)n1C)N(C(C)=O)C1C(N2)OCC(OC(C)=O)C1OC(C)=O (centres undefined)"
  TGI: "> 10 µM"
- COMPOUND: "Cc1ccc(-c2nc3ccc(Cl)cc3[nH]2)cc1"
  TGI: "> 100 µM"

---

Test system: UO-31 renal
TEST DETAILS: NCI tumour cell line growth inhibition, 48 h
Reported TGI by item:

- COMPOUND: "Fc1ccc2nc3n(c2c1)C(c1c(F)cccc1F)SC3 (stereo unspecified)"
  TGI: "> 100 µM"
- COMPOUND: "Cc1ccc(-c2nc3ccc(Cl)cc3[nH]2)cc1"
  TGI: "> 100 µM"
- COMPOUND: "C=C1CC[C@@H]2[C@](C)(COC(C)=O)[C@@H](O)CC[C@@]2(C)[C@@H]1COc1ccc2ccc(=O)oc2c1"
  TGI: "> 100 µM"
- COMPOUND: "Cn1c(/C=C(\\O)c2ccc(Cl)cc2)nc2ccccc21"
  TGI: "66.1 µM"
- COMPOUND: "NCCCN(CCCCN(CCCN)Cc1ccc2ccccc2c1)Cc1ccc2ccccc2c1"
  TGI: "6.1 µM"
- COMPOUND: "Cc1ccc(/C=N/Nc2cnccn2)s1"
  TGI: "> 100 µM"
- COMPOUND: "COc1ccc(NS(=O)CCCc2ccccc2)cc1 (stereo unspecified)"
  TGI: "> 100 µM"
- COMPOUND: "CC(=O)C1=CSC2[C@H](NC(=O)Cc3ccccc3)C(=O)N2C1C(=O)OC(c1ccccc1)c1ccccc1 (stereo partly specified)"
  TGI: "> 100 µM"
- COMPOUND: "CCCN(C(=O)c1c(Cl)nnc(Cl)c1C(=O)c1cc(Cl)nnc1Cl)c1cc(Cl)nnc1Cl"
  TGI: "33.2 µM"
- COMPOUND: "O=C1C2CC=CCC2C(=O)N1n1c(-c2ccccc2)n[nH]c1=O (stereo unspecified)"
  TGI: "> 100 µM"
- COMPOUND: "CCC1CN2CCc3cc(OC)c(OC)cc3C2CC1CC1c2cc(OC)c(OC)cc2CCN1C(=O)C1CCCN1C(=O)OCc1ccccc1 (stereo unspecified)"
  TGI: "26 µM"
- COMPOUND: "O=c1cc(-c2cccc(Cl)c2)[nH]c2ncccc12"
  TGI: "> 54 µM"
- COMPOUND: "[N-]=[N+]=Nc1c(-c2ccccc2)c(Cl)nc2ccccc12"
  TGI: "> 100 µM"
- COMPOUND: "Cc1ccc(N2C(=O)C3c4[nH]c5ccccc5c4C4CCC(C(C)(C)C)CC4C3C2=O)cc1 (stereo unspecified)"
  TGI: "31.3 µM"
- COMPOUND: "Cc1sc(Cc2ccccc2)nc1-c1ccc(N)cc1"
  TGI: "> 100 µM"
- COMPOUND: "CCCCCCNC(=O)c1cnc(Cl)cn1"
  TGI: "3.24 µM"
- COMPOUND: "CN(C)c1ccc(N=Nc2ccc3nc[nH]c3c2)cc1"
  TGI: "65.9 µM"
- COMPOUND: "COc1ccc2[nH]c3c(c2c1)CCn1c-3nc2ccccc2c1=O"
  TGI: "> 25 µM"
- COMPOUND: "CCOC(=O)C(C)(c1cn(C)c2ccccc12)c1cn(C)c2ccccc12"
  TGI: "> 100 µM"
- COMPOUND: "CC(C)[C@@H]1NC(=O)[C@H]2N=C(O[C@@H]2C)[C@@H]2CCCN2C(=O)[C@H](Cc2ccccc2)NC(=O)[C@@H]2CSC(=N2)[C@@H](Cc2ccccc2)NC(=O)[C@@H]2CSC1=N2"
  TGI: "> 50 µM"
- COMPOUND: "O=C(N/N=C/c1ccc2c(c1)CCC2)c1ccccc1O"
  TGI: "94.6 µM"
- COMPOUND: "c1ccc2c(c1)c(NCCCCN1CCCCC1)cc1c3ccccc3c(NCCCCN3CCCCC3)cc21"
  TGI: "> 100 µM"
- COMPOUND: "CN1CCCCC1CCN1CCCCC1 (stereo unspecified)"
  TGI: "> 100 µM"
- COMPOUND: "CN(C)CCNc1nc(-c2ccc3ccccc3c2)nc2nc[nH]c12"
  TGI: "12.9 µM"
- COMPOUND: "CC12CCC(C(=O)OC1=O)C(C)(C)O2 (stereo unspecified)"
  TGI: "> 100 µM"
- COMPOUND: "O=S(=O)(c1ccccc1)C(CN1CCCCC1)S(=O)(=O)c1ccccc1"
  TGI: "> 100 µM"
- COMPOUND: "COC(=O)C1CCC(=O)N1CN(C(C)=O)c1ccccc1 (stereo unspecified)"
  TGI: "> 100 µM"
- COMPOUND: "COc1cc2nc(N3CCCC3)nc(NCC3CCCCC3)c2cc1OC"
  TGI: "2.38 µM"
- COMPOUND: "CN(CCO)c1nc2c(c(=O)[nH]1)CCC2"
  TGI: "> 100 µM"
- COMPOUND: "O=C(NCc1cccnc1)NCc1cccnc1"
  TGI: "> 100 µM"
- COMPOUND: "CC1CCCc2c(C#N)c(N)nc(-c3ccc(Cl)cc3)c21 (stereo unspecified)"
  TGI: "79.7 µM"
- COMPOUND: "CC(=O)OC1CCn2nnc(CO[Si](C)(C)C(C)(C)C)c21 (stereo unspecified)"
  TGI: "> 100 µM"
- COMPOUND: "C[C@]12CCC3[C@@H](CC[C@@H]4c5nonc5CC[C@]34C)C1CCC(=O)N2 (stereo partly specified)"
  TGI: "> 100 µM"
- COMPOUND: "O=C(N=S(NC(=O)c1ccccc1)C(Cl)(Cl)Cl)c1ccccc1 (stereo unspecified)"
  TGI: "29.9 µM"
- COMPOUND: "CC(C)CC(CC1=CCC2CC1C2(C)C)C1=C(O)C(C)(C)C(=O)C(C)(C)C1=O (stereo unspecified)"
  TGI: "2.4 µM"
- COMPOUND: "COc1ccc(C(OCC2OC(n3ccc(NC(=O)c4ccccc4)nc3=O)C(O)C2O)(c2ccccc2)c2ccccc2)cc1 (stereo unspecified)"
  TGI: "11.4 µM"

---

Tested on: HS 578T breast
TEST DETAILS: NCI tumour cell line growth inhibition, 48 h
Reported TGI by item:

- MOLECULE: "CC1(C)CS(=O)(=O)CC(C)(C)C(=N/N)/C1=N\\N"
  EXPERIMENTAL TARGET: "HS 578T breast"
  TGI: "> 100 µM"
- MOLECULE: "COc1ccc([C@@H]2ON(C)[C@H]3CN(C)C(=O)[C@@H]23)cc1"
  EXPERIMENTAL TARGET: "HS 578T breast"
  TGI: "> 100 µM"
- MOLECULE: "N#Cc1c(N)oc(-c2cccc([N+](=O)[O-])c2)c1C#N"
  EXPERIMENTAL TARGET: "HS 578T breast"
  TGI: "> 100 µM"
- MOLECULE: "COc1cc(OC)c(OC)cc1/C=N/N=C(\\N)NO"
  EXPERIMENTAL TARGET: "HS 578T breast"
  TGI: "> 100 µM"

---

System: SF-295 CNS
TEST DETAILS: NCI tumour cell line growth inhibition, 48 h
Reported TGI by item:

- COMPOUND: "CCCN(C(=O)c1c(Cl)nnc(Cl)c1C(=O)c1cc(Cl)nnc1Cl)c1cc(Cl)nnc1Cl"
  TGI: "42.3 µM"
- COMPOUND: "N#Cc1c(N/N=C/c2c(Cl)cccc2Cl)nc(N)nc1N1CCOCC1"
  TGI: "> 100 µM"
- COMPOUND: "Cc1cc2c(C)n(Cc3ccc(Cl)cc3Cl)nc2c(C#N)c1C"
  TGI: "60.9 µM"
- COMPOUND: "Cc1ccccc1N=Nc1ccc(N=Nc2c(O)ccc3ccccc23)c(C)c1"
  TGI: "> 100 µM"
- COMPOUND: "CN(C)CCCN1c2ccccc2CCc2ccc(Cl)cc21"
  TGI: "14.8 µM"
- COMPOUND: "COc1ccc(NC(=O)/C(=N\\NC(=O)C[n+]2ccccc2)c2c(O)c3ccc(O)cc3oc2=O)c([N+](=O)[O-])c1"
  TGI: "> 100 µM"
- COMPOUND: "CC12NN=NC1C(=O)NC2=O (centres undefined)"
  TGI: "> 100 µM"
- COMPOUND: "COc1ccccc1NC(=O)/C(Cc1nc2ccc([N+](=O)[O-])cc2[nH]c1=O)=N\\NC(=O)C[N+](C)(C)C"
  TGI: "> 100 µM"
- COMPOUND: "CCOC(=O)/C(C(=S)Nc1ccccc1)=C(/N)N1CCCC1"
  TGI: "> 100 µM"
- COMPOUND: "CCOC(=O)C1=C(O)C(=O)c2ccsc2C1=O"
  TGI: "> 100 µM"
- COMPOUND: "O=C(C1CCCCC1)[C@@H]1[C@]2(C(=O)NC3CCCCC32)[C@@H]2CCCN2[C@@]12C(=O)NC1CCC(Cl)CC12 (some centres undefined)"
  TGI: "299 µM"
- COMPOUND: "CCOC1(COP(=O)(OCc2ccccc2)OCc2ccccc2)COC(COP(=O)(OCc2ccccc2)OCc2ccccc2)(OCC)CO1 (centres undefined)"
  TGI: "> 100 µM"
- COMPOUND: "c1ccc2c(C3NCCc4[nH]cnc43)cccc2c1 (centres undefined)"
  TGI: "> 100 µM"
- COMPOUND: "Cc1c(C#N)c(=O)[nH]c(=O)n1CCN1CCN(C(=O)NCCCCCCNC(=O)N2CCN(CCn3c(C)c(C#N)c(=O)[nH]c3=O)CC2)CC1"
  TGI: "> 100 µM"
- COMPOUND: "CCCC(=O)NC1=C(NCC)C(=O)c2ccccc2C1=O"
  TGI: "> 100 µM"
- COMPOUND: "CCCCCCCCCCCC(=O)OCCOCCOCCOCCOCCOCc1ccc(OC)cc1"
  TGI: "> 100 µM"
- COMPOUND: "COc1ccc(N2C(=O)C3c4[nH]c5ccc(C)cc5c4C4CCC(C)CC4C3C2=O)cc1 (centres undefined)"
  TGI: "> 100 µM"
- COMPOUND: "COc1cc2cc(C(=O)N3CC(CCl)c4ccc(O)cc43)[nH]c2c(OC)c1OC (centres undefined)"
  TGI: "0.00398 µM"
- COMPOUND: "N=C(N)c1ccc(N2CCCN(c3ccc(C(=N)N)cc3)CC2)cc1"
  TGI: "> 100 µM"
